pIC50: −log10 of the molar value.
Quick record of pIC50 values for Human mitochondrial LonP1 (wild-type) ATPase (Homo sapiens).
PROPERTY_LABEL: pIC50

MOLECULE	MEAS_VALUE
CC1(C)CC[C@]2(C(=O)O)CC[C@]3(C)[C@H](C(=O)C=C4[C@@]5(C)C=C(C#N)C(=O)C(C)(C)[C@@H]5CC[C@]43C)[C@@H]2C1	4.89
CC1(C)CC[C@]2(C(=O)OC(=O)[C@]34CCC(C)(C)C[C@H]3[C@H]3C(=O)C=C5[C@@]6(C)C=C(C#N)C(=O)C(C)(C)[C@@H]6CC[C@@]5(C)[C@]3(C)CC4)CC[C@]3(C)[C@H](C(=O)C=C4[C@@]5(C)C=C(C#N)C(=O)C(C)(C)[C@@H]5CC[C@]43C)[C@@H]2C1 [CDDO-anhydride]	4.71
COC(=O)[C@]12CCC(C)(C)C[C@H]1[C@H]1C(=O)C=C3[C@@]4(C)C=C(C#N)C(=O)C(C)(C)[C@@H]4CC[C@@]3(C)[C@]1(C)CC2	5.72
CC1(C)CC[C@]2(C(=O)n3ccnc3)CC[C@]3(C)[C@H](C(=O)C=C4[C@@]5(C)C=C(C#N)C(=O)C(C)(C)[C@@H]5CC[C@]43C)[C@@H]2C1	5.70
